- tested system: PPARγ (Homo sapiens, UniProt P37231)
- Construct: purchased Invitrogen Corporation, Carlsbad, Calif
- Sequence (P37231 238-503 limits assumed): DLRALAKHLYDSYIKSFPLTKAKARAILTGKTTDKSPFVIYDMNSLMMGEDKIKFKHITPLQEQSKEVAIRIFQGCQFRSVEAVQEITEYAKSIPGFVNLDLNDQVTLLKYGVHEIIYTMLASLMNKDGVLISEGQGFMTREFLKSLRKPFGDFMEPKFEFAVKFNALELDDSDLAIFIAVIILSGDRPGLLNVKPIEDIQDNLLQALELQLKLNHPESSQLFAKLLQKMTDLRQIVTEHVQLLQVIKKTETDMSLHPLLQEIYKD
- experiment notes: Commercial PPARγ binding assay (Invitrogen, PPAR-LBD/Fluormone PPAR Green complex)
- particulars: compound at 50 μM; average (SEM) of three experiments in quadruplicate
We begin with a simple list: items and their reported PPARγ ligand binding (Fluormone displacement signal).

Example entries and their recorded answers appear below.
CCc1ccc(C(=O)COc2ccc(CC3(C)SC(=O)NC3=O)cc2)nc1 (centres unmarked) [Compound 10] = 126 (3)
CCc1ccc(C(O)COc2ccc(CC3(C)SC(=O)NC3=O)cc2)nc1 (centres unmarked) [Compound 5] = 132 (12)
CCc1ccc([C@@H](O)COc2ccc(CC3SC(=O)NC3=O)cc2)nc1 (some centres unmarked) [Compound 2] = 162 (8)
CCc1ccc(CCOc2ccc(CC3(C)SC(=O)NC3=O)cc2)nc1 (centres unmarked) [Compound 7] = 144 (15)

Consider the record given below.
Exercise: Specify reported PPARγ ligand binding (Fluormone displacement signal) for the molecule shown: CCc1ccc([C@@H](O)COc2ccc(CC3(C)SC(=O)NC3=O)cc2)nc1 (some centres unmarked) [Compound 8]
Key: 199 (15)
